Data credit: patent US20180284095A1

# Measured Target: Human recombinant monoamine oxidase MAO-B (Homo sapiens, UniProt P27338)
# Construct: purchased Sigma Aldrich
# Sequence (P27338 1-520): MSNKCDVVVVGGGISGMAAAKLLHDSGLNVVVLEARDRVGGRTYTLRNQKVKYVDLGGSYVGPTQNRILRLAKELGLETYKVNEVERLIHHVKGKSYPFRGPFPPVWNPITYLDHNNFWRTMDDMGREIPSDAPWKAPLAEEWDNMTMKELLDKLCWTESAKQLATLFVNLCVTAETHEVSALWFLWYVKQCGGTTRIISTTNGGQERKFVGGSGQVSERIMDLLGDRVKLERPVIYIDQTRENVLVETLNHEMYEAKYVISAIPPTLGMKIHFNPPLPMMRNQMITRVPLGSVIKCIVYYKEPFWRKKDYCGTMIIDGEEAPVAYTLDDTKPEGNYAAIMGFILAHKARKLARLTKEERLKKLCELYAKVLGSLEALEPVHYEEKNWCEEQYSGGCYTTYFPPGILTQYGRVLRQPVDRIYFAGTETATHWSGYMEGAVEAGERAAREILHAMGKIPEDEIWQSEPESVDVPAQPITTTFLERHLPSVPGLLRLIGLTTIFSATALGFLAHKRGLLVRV
# Protocol: MAO-B fluorescence-based kynuramine assay
# Assay type: biochemical
Assay Endpoint: IC50 (µM)

- N[C@H]1CCN(CCN[C@H]2C[C@@H]2c2ccc(-c3cccc(C(F)(F)F)c3)cc2)C1 (racemic): 5.1
- NC(=O)CN[C@H]1C[C@@H]1c1ccc(OCc2ccccc2)cc1 (racemic): 0.07

---

# Measured Target: Human recombinant LSD1 protein (Homo sapiens)
# Construct: amino acids 158-end with N-terminal GST tag; purchased BPS Bioscience Inc 50100
# Protocol: LSD1 in vitro biochemical assay (Amplex Red, di-methylated H3-K4 peptide)
A collection of molecules and their measured IC50
Assay Endpoint: IC50 (µM)

• NC(=O)CN[C@H]1C[C@@H]1c1ccc(OCc2ccccc2)cc1 (racemic) = 0.16
• N[C@H]1CCN(CCN[C@H]2C[C@@H]2c2ccc(-c3cccc(C(F)(F)F)c3)cc2)C1 (racemic) = 0.06

---

In this section, each of the molecules is paired with its reported IC50.
# Measured Target: Human recombinant monoamine oxidase MAO-A (Homo sapiens, UniProt P21397)
# Construct: purchased Sigma Aldrich
# Sequence (P21397 whole entry): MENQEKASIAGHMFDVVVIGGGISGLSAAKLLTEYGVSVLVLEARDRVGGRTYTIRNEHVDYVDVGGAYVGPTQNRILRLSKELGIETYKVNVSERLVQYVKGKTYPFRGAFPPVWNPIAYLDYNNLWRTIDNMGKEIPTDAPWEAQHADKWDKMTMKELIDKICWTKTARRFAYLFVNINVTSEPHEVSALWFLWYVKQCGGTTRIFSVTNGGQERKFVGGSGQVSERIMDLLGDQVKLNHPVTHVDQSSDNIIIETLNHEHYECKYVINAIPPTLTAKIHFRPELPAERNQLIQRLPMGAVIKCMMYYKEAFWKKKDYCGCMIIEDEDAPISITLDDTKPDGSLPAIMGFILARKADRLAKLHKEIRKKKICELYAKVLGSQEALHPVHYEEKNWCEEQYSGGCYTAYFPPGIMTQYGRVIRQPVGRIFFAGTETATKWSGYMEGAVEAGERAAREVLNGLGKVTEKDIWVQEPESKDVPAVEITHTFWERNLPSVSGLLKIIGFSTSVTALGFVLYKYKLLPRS
# Protocol: MAO-A fluorescence-based kynuramine assay
# Assay type: biochemical
Assay Endpoint: IC50

• N[C@H]1CCN(CCN[C@H]2C[C@@H]2c2ccc(-c3cccc(C(F)(F)F)c3)cc2)C1 (racemic) [Compound 5] = 3.4 µM
• NC(=O)CN[C@H]1C[C@@H]1c1ccc(OCc2ccccc2)cc1 (racemic) [Compound 3] = 2.3 µM
• CN1CCN(C(=O)CN[C@H]2C[C@@H]2c2ccc(OCc3ccccc3)cc2)CC1 (racemic) [Compound 4] = 4.6 µM
